- ASSAY TARGET: oestrone sulphatase (E1-STS) (Homo sapiens)
- Construct: endogenous in cells; host or cells: MCF-7 breast cancer cells
- Sequence (P08842 22-583): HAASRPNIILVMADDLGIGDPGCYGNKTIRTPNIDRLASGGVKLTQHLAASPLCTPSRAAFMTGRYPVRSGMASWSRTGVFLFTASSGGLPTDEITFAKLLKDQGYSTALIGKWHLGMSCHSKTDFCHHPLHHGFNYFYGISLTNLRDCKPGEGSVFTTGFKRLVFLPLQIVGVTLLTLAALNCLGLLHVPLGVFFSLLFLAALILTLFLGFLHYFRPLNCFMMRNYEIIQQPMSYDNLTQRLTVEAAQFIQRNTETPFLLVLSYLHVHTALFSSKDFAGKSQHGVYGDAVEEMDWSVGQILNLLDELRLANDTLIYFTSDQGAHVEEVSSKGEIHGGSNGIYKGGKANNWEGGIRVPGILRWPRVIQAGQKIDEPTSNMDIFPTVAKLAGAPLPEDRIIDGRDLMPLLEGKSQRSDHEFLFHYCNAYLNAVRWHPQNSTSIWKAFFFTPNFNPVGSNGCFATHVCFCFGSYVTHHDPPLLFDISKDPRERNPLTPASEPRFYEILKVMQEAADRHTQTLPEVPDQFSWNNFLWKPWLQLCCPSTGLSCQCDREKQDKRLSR
- ASSAY NAME: Oestrone sulphatase (E1-STS) inhibition in intact MCF-7 breast cancer cells
- Format: cell-based
- ASSAY SETUP: 1 μM
Decide using % Inhibition of sulphatase activity in MCF-7 cells: a value greater than or equal to 10% is Met, a smaller one is Not met.

{"columns": ["COMPOUND", "CATEGORY"],
 "data": [
  ["NS(=O)(=O)Oc1ccc(-c2coc3cc(O)cc(O)c3c2=O)cc1 [Compound 18, 5,7-Dihydroxy isoflavone-4′-O-sulphamate]", "Met"],
  ["COc1ccc(-c2cc(=O)c3c(OC)c(OC)c(OC)cc3o2)cc1OS(N)(=O)=O [Compound 7]", "Met"],
  ["NS(=O)(=O)Oc1cc(O)c2c(=O)c(OS(N)(=O)=O)c(-c3ccccc3)oc2c1 [Compound 10, 5-Hydroxy flavone-3,7-O,O-bisulphamate]", "Not met"],
  ["NS(=O)(=O)Oc1ccc2oc(-c3ccccc3)cc(=O)c2c1 [Compound 2, Flavone-6-O-sulphamate]", "Met"],
  ["COc1ccc(-c2coc3cc(OS(N)(=O)=O)cc(O)c3c2=O)cc1 [Compound 16]", "Met"]
]}
